System: ZEB2
protocol notes: 3' UTR reporter interaction score (median-centred robust z-score of log2 firefly/Renilla activity); higher = less repression of the 3' UTR reporter
condition description: HEK293T; 48 h
readout label: 3' UTR reporter interaction score

1. AUUCUGCAUUUUUAGCAAGU = -0.209
2. AGGGUAAGCUGAACCUCUGAU = -0.308
3. AAAGUAGCUGUACCAUUUGC = 1.39
4. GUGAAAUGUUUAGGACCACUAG = 0.105
5. UUUAGGAUAAGCUUGACUUUUG = -2.69
6. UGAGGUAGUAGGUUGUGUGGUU = -1.14
7. UUUGUGACCUGGUCCACUAACC = 0.152
8. CAACCUGGAGGACUCCAUGCUG = 0.335
9. UGUGCUUGCUCGUCCCGCCCGCAG = 0.763
10. AGAGGCUGGCCGUGAUGAAUUC = 0.958
11. UCCCUGAGACCCUAACUUGUGA = 1.05
12. GUUUGCACGGGUGGGCCUUGUCU = -1.23
13. UCCAGCUCCUAUAUGAUGCCUUU = -2.75
14. UAAACGUGGAUGUACUUGCUUU = 0.846
15. UAUGGCACUGGUAGAAUUCACUG = -2.1

====

System: PHF6
protocol notes: 3' UTR reporter interaction score (median-centred robust z-score of log2 firefly/Renilla activity); higher = less repression of the 3' UTR reporter
condition description: HEK293T; 48 h
Classes based on 3' UTR reporter interaction score: range A: < -0.3; range B: ≥ -0.3 and < 0.5; range C: ≥ 0.5

1. CAAAGAAUUCUCCUUUUGGGCUU = range B
2. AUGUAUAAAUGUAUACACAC = range A
3. AGGGCCCCCCCUCAAUCCUGU = range B
4. AAAAGUGCUUACAGUGCAGGUAGC = range C
5. CUGAAGUGAUGUGUAACUGAUCAG = range A
6. GUCAACACUUGCUGGUUUCCUC = range C
7. GAGCCAGUUGGACAGGAGC = range A
8. UUGAAACAAUCUCUACUGAAC = range A
9. CAAAACUGGCAAUUACUUUUGC = range A
10. GCCUGCUGGGGUGGAACCUGG = range B
11. AAAGUGCUUCCUUUUAGAGGGUU = range B
12. GUGGCUGCACUCACUUCCUUC = range C
13. UUUUGCACCUUUUGGAGUGAA = range C
14. UGAGGUAGUAGAUUGUAUAGUU = range B
15. GCUGGGCAGGGCUUCUGAGCUCCUU = range C
16. AGCAGCAUUGUACAGGGCUAUGA = range C
17. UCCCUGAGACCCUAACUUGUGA = range B
18. UCCUGUACUGAGCUGCCCCGAG = range A
19. GAGUGCCUUCUUUUGGAGCGU = range C
20. UGGUUGACCAUAGAACAUGCGC = range B
21. UAGCACCAUUUGAAAUCGGU = range B
22. UGAUAUGUUUGAUAUAUUAGGU = range A
23. GUUGGAGGAUGAAAGUACGGAGUGAU = range C
24. GUGUCUGCUUCCUGUGGGA = range B
25. CUUGGUUCAGGGAGGGUCCCCA = range B
26. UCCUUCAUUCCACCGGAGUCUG = range C
27. AGUAUGUUCUUCCAGGACAGAAC = range A
28. UUCAACGGGUAUUUAUUGAGCA = range A
29. AUGGAGAUAGAUAUAGAAAU = range A
30. AAAAGCUGGGUUGAGAGGGCGAA = range B
31. AGGUUACCCGAGCAACUUUGCA = range B
32. GCGACCCAUACUUGGUUUCAG = range A
33. UCGUGCAUCCCUUUAGAGUGUU = range C
34. UUAAGACUUGCAGUGAUGUUUAA = range A
35. UAAGUGCUUCCAUGUUUUGGUGA = range C
36. UCUCUGGAGGGAAGCACUUUCUG = range C
37. CUCUUGAGGGAAGCACUUUCUGUU = range A
38. UGUCUGCCCGCAUGCCUGCCUCU = range C
39. AAAGUGCCUCCUUUUAGAGUGU = range C
40. UUCACCACCUUCUCCACCCAGC = range A
41. CAUUGCACUUGUCUCGGUCUGA = range A
42. UAAAGUGCUUAUAGUGCAGGUAG = range C
43. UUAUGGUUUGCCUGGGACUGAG = range A
44. GCUGCGCUUGGAUUUCGUCCCC = range C
45. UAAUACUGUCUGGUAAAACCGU = range B
46. GAAGUUGUUCGUGGUGGAUUCG = range A
47. UGGAGGAGAAGGAAGGUGAUG = range B
48. UCACAGUGAACCGGUCUCUUUU = range C
49. CUCCUGACUCCAGGUCCUGUGU = range A
50. GAUUGCUCUGCGUGCGGAAUCGAC = range B
51. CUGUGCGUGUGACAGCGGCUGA = range C
52. UGUGUCACUCGAUGACCACUGU = range A
53. UCCAGCAUCAGUGAUUUUGUUGA = range B
54. UCGUGUCUUGUGUUGCAGCCG = range B
55. UCUGCUCAUACCCCAUGGUUUCU = range C
56. UCGUACCGUGAGUAAUAAUGC = range C
57. AGUGUGGCUUUCUUAGAGC = range A
58. GUGCAUUGUAGUUGCAUUG = range B
